System: MIWI (PIWIL1) piRISC loaded with piRNA #2 (30 nt);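 note: 1 nM active piRISC with 0.1 nM target library at 33 °C single turnover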
test-method-notes: pre-steady-state target cleavage rate (min^-1); higher = faster piRNA-guided slicing of the target
particulars: guide: piRNA #2 5'p-UUAGGUAACCCAGUAGAUCCAGAGGAAUUC; auxiliary factor: 500 nM mouse GTSF1
Over roughly 5,500 sequences, “pre-steady-state target cleavage rate” has its median near 0.1; the highest 2% begin near 0.64. Only a selection was taken, and the highest values are over-represented in it overall.
# Lookup of reported pre-steady-state target cleavage rate keyed by entry
Hey, just send me the number, nothing else.

Use the examples below as a reference point.
CAUAACCUCUGGAUCUACUGGGUUACCUAA : 0.234
CUAUUCCACUGGAUCUACUCGGUUACCUAA : 0.0817
CUUAUCCUCUGGAUCUACUCGGUUACCUAA : 0.0981
GAAUUCCACUCGAUCUACUGGGUUACCUAA : 0.564

Kindly review the next sequence as well.
Entry under review: CUAUUCCACUCGAUCUACUGGGUUACCUAA . Reported pre-steady-state target cleavage rate?
0.703

---

Test system: MIWI (PIWIL1) piRISC loaded with piRNA #2 (30 nt);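 note: 1 nM active piRISC with 0.1 nM target library at 33 °C single turnover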
test-method-notes: pre-steady-state target cleavage rate (min^-1); higher = faster piRNA-guided slicing of the target
particulars: guide: piRNA #2 5'p-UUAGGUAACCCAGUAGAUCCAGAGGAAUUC; auxiliary factor: 500 nM mouse GTSF1
Whole data set: some 5,500 sequences, median “pre-steady-state target cleavage rate” near 0.1, cut for the highest 2% near 0.64. The full list was thinned out, with the highest values kept by preference.
measure-name: pre-steady-state target cleavage rate
Hey, just send me the number, nothing else.

Use the examples below as a reference point.
CAUUUCCUCUCGAUCUACUGGGUUACCUAA : 0.808
CUUUUCCUCUCGAUCUACUGGGUUACCUAA : 0.602

Kindly review the next sequence as well.
Entry under review: GAUUUCCUCUCGAUCUACUGGGUUACCUAA . Reported pre-steady-state target cleavage rate?
0.66

---

Test system: MIWI (PIWIL1) piRISC loaded with piRNA #2 (30 nt);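 note: 1 nM active piRISC with 0.1 nM target library at 33 °C single turnover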
test-method-notes: pre-steady-state target cleavage rate (min^-1); higher = faster piRNA-guided slicing of the target
particulars: guide: piRNA #2 5'p-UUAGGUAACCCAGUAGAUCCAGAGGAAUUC; auxiliary factor: 500 nM mouse GTSF1
The full ranking holds about 5,500 sequences; the median of “pre-steady-state target cleavage rate” is about 0.1, and the highest 2% start at about 0.64. The entries come from a sample that favours the highest values as a whole.
measure-name: pre-steady-state target cleavage rate
Hey, just send me the number, nothing else.

Use the examples below as a reference point.
CUUUUCCUCUGAUCUACUGGGUUACCUAA : 0.304
CUUAUCCUCUCGAUCUACUGGGUUACCUUA : 0.436
CUUAAGCUCUGGAUCUACUGGGUUACCUCAA : 0.0988

Field: pre-steady-state target cleavage rate (MIWI (PIWIL1) piRISC loaded with piRNA #2 (30 nt)). Entry: GAAUUCCUCUCGAUCUACUGGGUUACCUUA;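 note: 1 nM active piRISC with 0.1 nM target library at 33 °C single turnover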
0.629

Field: pre-steady-state target cleavage rate (MIWI (PIWIL1) piRISC loaded with piRNA #2 (30 nt)). Entry: CUAUUCCUCUCGGAUCUACUGGGUUACCUAA;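 note: 1 nM active piRISC with 0.1 nM target library at 33 °C single turnover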
0.575

Field: pre-steady-state target cleavage rate (MIWI (PIWIL1) piRISC loaded with piRNA #2 (30 nt)). Entry: CUUUUCCUCUGGAUCUACUGGGUUACCAUAA;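 note: 1 nM active piRISC with 0.1 nM target library at 33 °C single turnover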
0.422

---

System: MIWI (PIWIL1) piRISC loaded with piRNA #2 (30 nt);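 note: 1 nM active piRISC with 0.1 nM target library at 33 °C single turnover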
test-method-notes: pre-steady-state target cleavage rate (min^-1); higher = faster piRNA-guided slicing of the target
particulars: guide: piRNA #2 5'p-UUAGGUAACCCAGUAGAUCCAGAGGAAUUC; auxiliary factor: 500 nM mouse GTSF1
Whole data set: some 5,500 sequences, median “pre-steady-state target cleavage rate” near 0.1, cut for the highest 2% near 0.64. The full list was thinned out, with the highest values kept by preference.
measure-name: pre-steady-state target cleavage rate

CAAUUCCUUGGAUCUACUGGGUUACCUAA : 0.45
CUUAACCUCAGGAUCUAGUGGGUUACCUAA : 0.128

Entry under review: CAAAUCCUCUGGAUCUACUGGGUUACCUAA . Reported pre-steady-state target cleavage rate?
0.47

Entry under review: CUUAAGGAGAGGAUCUACUGGGUUAACCUAA . Reported pre-steady-state target cleavage rate?
0.00722

---

# Lookup of reported pre-steady-state target cleavage rate keyed by entry
Test system: MIWI (PIWIL1) piRISC loaded with piRNA #2 (30 nt);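 note: 1 nM active piRISC with 0.1 nM target library at 33 °C single turnover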
test-method-notes: pre-steady-state target cleavage rate (min^-1); higher = faster piRNA-guided slicing of the target
particulars: guide: piRNA #2 5'p-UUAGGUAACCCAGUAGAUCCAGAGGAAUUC; auxiliary factor: 500 nM mouse GTSF1
The full ranking holds about 5,500 sequences; the median of “pre-steady-state target cleavage rate” is about 0.1, and the highest 2% start at about 0.64. The entries come from a sample that favours the highest values as a whole.
Hey, just send me the number, nothing else.

Use the examples below as a reference point.
CUUUACCUCUGGAUCUACUGGGUUUCCUAA : 0.167
CUUAAGGAGUGGAACUACUGGGUUACCUAA : 0.0357
CUUAAGCUCUCGAUCUACAGGGUUACCUAA : 0.185

Entry under review: CUAUUCCUCUGGAUCUACUGGGUUACAUAA . Reported pre-steady-state target cleavage rate?
0.739

Entry under review: CUUUUCCUCUCGAUCAACUGGGUUACCUAA . Reported pre-steady-state target cleavage rate?
0.553

Entry under review: CAAUUCCUCUGGAUCUACUGGGUAACCUAA . Reported pre-steady-state target cleavage rate?
0.263

Entry under review: GAAUUCCUCUGCAUCUACUGGGUUACCUAA . Reported pre-steady-state target cleavage rate?
0.421

Entry under review: GAAUUCCUCUGGAUCUACUGCGUUACCUAA . Reported pre-steady-state target cleavage rate?
0.469

Entry under review: GAAUUCCUCUGCAACUACUGGGUUACCUAA . Reported pre-steady-state target cleavage rate?
0.413

Entry under review: CUUAUCCUCUGGAUCUACAGGGUAACCUAA . Reported pre-steady-state target cleavage rate?
0.128

Entry under review: CUUAAGGACGGGAUCUACUGGGUUACCUAA . Reported pre-steady-state target cleavage rate?
0.0681

Entry under review: CAAUUCCUCUGGAUCUACUGCGUUACCUAA . Reported pre-steady-state target cleavage rate?
0.593

Entry under review: CAAUUCCUCUGGCAUCUACUGGGUUACCUAA . Reported pre-steady-state target cleavage rate?
0.636

Entry under review: CUAUUCCUCUCGAUCUACUCGGUUACCUAA . Reported pre-steady-state target cleavage rate?
0.196

---

# Lookup of reported pre-steady-state target cleavage rate keyed by entry
Test system: MIWI (PIWIL1) piRISC loaded with piRNA #2 (30 nt);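 note: 1 nM active piRISC with 0.1 nM target library at 33 °C single turnover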
test-method-notes: pre-steady-state target cleavage rate (min^-1); higher = faster piRNA-guided slicing of the target
particulars: guide: piRNA #2 5'p-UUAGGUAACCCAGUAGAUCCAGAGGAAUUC; auxiliary factor: 500 nM mouse GTSF1
Whole data set: some 5,500 sequences, median “pre-steady-state target cleavage rate” near 0.1, cut for the highest 2% near 0.64. Only a selection was taken, and the highest values are over-represented in it overall.

Use the examples below as a reference point.
GAAUUCCACAGGAUCUACUGGGUUACCUAA : 0.408
CUUUUCCUCUCGAUCUACUGGGUUUCCUAA : 0.509
GAAUACCUCUGGAUCUACUGGGUAACCUAA : 0.168
CUUAACGUCUCGAUCUACUGGGUUACCUAA : 0.357

Field: pre-steady-state target cleavage rate (MIWI (PIWIL1) piRISC loaded with piRNA #2 (30 nt)). Entry: CAAUACCUCUGGAUCUACUGGGUUACCUAA;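 note: 1 nM active piRISC with 0.1 nM target library at 33 °C single turnover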
0.395

Field: pre-steady-state target cleavage rate (MIWI (PIWIL1) piRISC loaded with piRNA #2 (30 nt)). Entry: CAAUUCCUCUCGAUCUACUGGGUUACCAAA;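 note: 1 nM active piRISC with 0.1 nM target library at 33 °C single turnover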
0.904

Field: pre-steady-state target cleavage rate (MIWI (PIWIL1) piRISC loaded with piRNA #2 (30 nt)). Entry: CUUAACCUGUGGAACUACUGGGUUACCUAA;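 note: 1 nM active piRISC with 0.1 nM target library at 33 °C single turnover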
0.177

---

Tested on: MIWI (PIWIL1) piRISC loaded with piRNA #2 (30 nt);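 note: 1 nM active piRISC with 0.1 nM target library at 33 °C single turnover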
test-method-notes: pre-steady-state target cleavage rate (min^-1); MIWI and MILI are mouse PIWI proteins and EfPiwi is from a freshwater sponge; tags in brackets are library labels; higher = faster piRNA-guided slicing of the target;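 note: 1 nM active piRISC with 0.1 nM target library at 33 °C single turnover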
particulars: guide: piRNA #2 5'p-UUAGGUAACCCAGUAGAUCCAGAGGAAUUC; auxiliary factor: 500 nM mouse GTSF1
Whole data set: some 5,500 sequences, median “pre-steady-state target cleavage rate” near 0.1, cut for the highest 2% near 0.64. Shown is part of a subset that was picked to be rich in the highest values.
measure-name: pre-steady-state target cleavage rate
Hey, just send me the number, nothing else.

Use the examples below as a reference point.
CAAUUCCUCUGGGUCUACUGGGUUACCUAA : 0.562
GAAUUCCUCUCGAUCUACUGGGUUACCUAA : 0.642
GAAUUCCUCCGGAUCUACUGGGUUACCUAA : 0.407
GAUUUCCUCAGGAUCUACUGGGUUACCUAA : 0.459
CAAUUCCUCAGGAUCUUCUGGGUUACCUAA : 0.485
CUAUUCCUCUCCUUCUACUGGGUUACCUAA : 0.569
CUAUUCCUCCGGAUCUACUGGGUUACCUAA : 0.697
CUUAAGGUCUGGAACUACUGGCUUACCUAA : 0.027

Entry under review: CUUAUGCUCUGGAUCUACUGGGUUACGUAA . Reported pre-steady-state target cleavage rate?
0.534

Entry under review: CUAUUCCUCAGGAUCUACUGCGUUACCUAA . Reported pre-steady-state target cleavage rate?
0.561

Entry under review: GAAUUCCUCUCGGAUCUACUGGGUUACCUAA . Reported pre-steady-state target cleavage rate?
0.442

Entry under review: CAAUUCCUCAGGAUCUACUGCGUUACCUAA . Reported pre-steady-state target cleavage rate?
0.674

Entry under review: CAAUUCCUCGGAUCUACUGGGUUACCUAA . Reported pre-steady-state target cleavage rate?
0.47

Entry under review: CUAUUCCACUGGAUCUACUGCGUUACCUAA . Reported pre-steady-state target cleavage rate?
0.542

Data provenance: the supplement of paper PMC10338343
